B1: Azoarcus group I ribozyme (parent)
chain: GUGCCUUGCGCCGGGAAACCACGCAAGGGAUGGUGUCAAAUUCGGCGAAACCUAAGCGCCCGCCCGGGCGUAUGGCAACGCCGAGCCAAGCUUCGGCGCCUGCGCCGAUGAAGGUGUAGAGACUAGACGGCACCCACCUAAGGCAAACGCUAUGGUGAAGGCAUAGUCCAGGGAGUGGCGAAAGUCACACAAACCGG

Variants of: B1
METHOD DESCRIPTION: reverse-splicing fitness (ratio to wild type); higher = more active; in vitro selection; Mg2+ level not given
# reported reverse-splicing fitness; entries follow
Number only, no unit.

{"VAR": "C82U A120G A145U C150A C169G", "reverse-splicing fitness": 0.0077}
{"VAR": "C82A A111U A120C A145G C150G", "reverse-splicing fitness": 0.0101}
{"VAR": "C82G A111C A120G A145C C150A U176A", "reverse-splicing fitness": 0.0121}
{"VAR": "C82A A111U A145G C169G U176G", "reverse-splicing fitness": 0.00674}
{"VAR": "C82A A111G A120G A145U C150G C169G", "reverse-splicing fitness": 0.00677}

input: Return reported reverse-splicing fitness; argument: C82G A111U A120C A145C C169A U176G
output: 0.00544

input: Return reported reverse-splicing fitness; argument: C82G A111G A120C A145G C150G C169U
output: 0.00987

input: Return reported reverse-splicing fitness; argument: C82A A111G A120G A145G C169U U176G
output: 0.00492

input: Return reported reverse-splicing fitness; argument: C82U A111U A120G A145G C150U U176A
output: 0.00911

input: Return reported reverse-splicing fitness; argument: C82G A111C A120C A145U C150U U176C
output: 0.02

input: Return reported reverse-splicing fitness; argument: C82A A111G A120U A145C C150A C169G U176C
output: 0.00235

input: Return reported reverse-splicing fitness; argument: C82G A111C A120G A145U C150A
output: 0.00783

input: Return reported reverse-splicing fitness; argument: C82A A111G A120G A145U C150U C169G U176G
output: 0.00537

input: Return reported reverse-splicing fitness; argument: C82G A111C A120U A145G C150G U176G
output: 0.00447

input: Return reported reverse-splicing fitness; argument: C82U A111G A120U C169A U176A
output: 0.0024
